target: jack bean urease (Canavalia ensiformis); experiment: Urease inhibition assay; assay type: biochemical; settings: Enzyme (SEM ±) J.B Urease, IC50, mean ± SEM, 3 experiments
PROPERTY MEASURED: IC50 (µM)
Respond numerically; units are µM and should not be typed.

C=CCN(c1nccs1)S(=O)(=O)c1ccc(F)cc1
46
O=S(=O)(c1ccc(Br)cc1)N(Cc1ccccc1)c1nccs1
23.1
C=CCN(c1nccs1)S(=O)(=O)c1ccc([N+](=O)[O-])cc1
52.1

Per the record, C=CCN(c1nccs1)S(=O)(=O)c1ccccc1 has IC50 of 21.2

For this molecule ( Cc1ccc(S(=O)(=O)N(C)c2nccs2)cc1 ), measured IC50 is 22.1

====

biological target: Bacillus Pasteurii urease (Sporosarcina pasteurii, UniProt P41020); test: Urease inhibition assay; type: biochemical; conditions: read-out: Enzyme (SEM ±) B.P Urease, IC50; mean ± SEM, 3 experiments
Sequence (P41020 whole entry): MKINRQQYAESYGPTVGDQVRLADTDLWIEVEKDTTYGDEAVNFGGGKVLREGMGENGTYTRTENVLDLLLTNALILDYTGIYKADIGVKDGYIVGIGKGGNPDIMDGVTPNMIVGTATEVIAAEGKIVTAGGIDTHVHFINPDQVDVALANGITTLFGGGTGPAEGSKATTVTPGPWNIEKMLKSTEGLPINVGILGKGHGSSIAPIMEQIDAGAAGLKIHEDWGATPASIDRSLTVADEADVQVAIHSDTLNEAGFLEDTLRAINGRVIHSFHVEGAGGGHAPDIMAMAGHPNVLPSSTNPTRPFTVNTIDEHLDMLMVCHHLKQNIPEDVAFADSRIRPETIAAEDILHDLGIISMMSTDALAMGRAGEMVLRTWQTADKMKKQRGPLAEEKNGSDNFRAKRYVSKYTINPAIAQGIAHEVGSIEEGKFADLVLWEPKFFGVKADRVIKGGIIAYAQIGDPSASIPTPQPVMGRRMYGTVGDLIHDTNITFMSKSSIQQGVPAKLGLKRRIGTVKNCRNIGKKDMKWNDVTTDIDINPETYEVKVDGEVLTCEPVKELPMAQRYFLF
Sequence (P41021 whole entry partner): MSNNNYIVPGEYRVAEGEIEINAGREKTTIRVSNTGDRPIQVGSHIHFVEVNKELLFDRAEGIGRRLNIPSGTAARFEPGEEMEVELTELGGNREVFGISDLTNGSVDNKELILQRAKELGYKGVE
Sequence (P41022 whole entry partner): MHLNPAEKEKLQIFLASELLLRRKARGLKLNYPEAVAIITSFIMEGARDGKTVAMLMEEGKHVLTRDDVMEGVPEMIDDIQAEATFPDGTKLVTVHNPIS
PROPERTY MEASURED: pIC50
Lab note: report pIC50 as minus log10 of the concentration in molar units, number only.

Entry NC(N)=S [Thiourea, reference compound] , tested on Bacillus Pasteurii urease (Sporosarcina pasteurii, UniProt P41020), has a reported pIC50 of 4.85

====

experiment: Superoxide anion scavenging assay; settings: 50 μM
Please use Y whenever superoxide anion % scavenging is not below 40%, and N whenever it is.

O=S(=O)(c1ccc(Cl)cc1)N(Cc1ccccc1)c1nccs1 [Compound 23]
Y

Identify whether the reported superoxide anion % scavenging of the following molecule is 40% or greater: C=CCN(c1nccs1)S(=O)(=O)c1ccc([N+](=O)[O-])cc1 [Compound 32] N

Check the entry O=S(=O)(c1ccc(Br)cc1)N(Cc1ccccc1)c1nccs1 [Compound 21] : does superoxide anion % scavenging equal or exceed 40%? Y

Tell me whether superoxide anion % scavenging is at least 40% here: CN(c1nccs1)S(=O)(=O)c1ccc(Br)cc1 [Compound 35] Y

// inclusive: superoxide anion % scavenging at least 40%? input: CN(c1nccs1)S(=O)(=O)c1ccc(Cl)cc1 [Compound 37] Y

====

molecular target: jack bean urease (Canavalia ensiformis, UniProt P07374); experiment: Urease inhibition assay; format: biochemical; conditions: Enzyme (SEM ±) J.B Urease, IC50, mean ± SEM, 3 experiments
Sequence (P07374 whole entry, looked up): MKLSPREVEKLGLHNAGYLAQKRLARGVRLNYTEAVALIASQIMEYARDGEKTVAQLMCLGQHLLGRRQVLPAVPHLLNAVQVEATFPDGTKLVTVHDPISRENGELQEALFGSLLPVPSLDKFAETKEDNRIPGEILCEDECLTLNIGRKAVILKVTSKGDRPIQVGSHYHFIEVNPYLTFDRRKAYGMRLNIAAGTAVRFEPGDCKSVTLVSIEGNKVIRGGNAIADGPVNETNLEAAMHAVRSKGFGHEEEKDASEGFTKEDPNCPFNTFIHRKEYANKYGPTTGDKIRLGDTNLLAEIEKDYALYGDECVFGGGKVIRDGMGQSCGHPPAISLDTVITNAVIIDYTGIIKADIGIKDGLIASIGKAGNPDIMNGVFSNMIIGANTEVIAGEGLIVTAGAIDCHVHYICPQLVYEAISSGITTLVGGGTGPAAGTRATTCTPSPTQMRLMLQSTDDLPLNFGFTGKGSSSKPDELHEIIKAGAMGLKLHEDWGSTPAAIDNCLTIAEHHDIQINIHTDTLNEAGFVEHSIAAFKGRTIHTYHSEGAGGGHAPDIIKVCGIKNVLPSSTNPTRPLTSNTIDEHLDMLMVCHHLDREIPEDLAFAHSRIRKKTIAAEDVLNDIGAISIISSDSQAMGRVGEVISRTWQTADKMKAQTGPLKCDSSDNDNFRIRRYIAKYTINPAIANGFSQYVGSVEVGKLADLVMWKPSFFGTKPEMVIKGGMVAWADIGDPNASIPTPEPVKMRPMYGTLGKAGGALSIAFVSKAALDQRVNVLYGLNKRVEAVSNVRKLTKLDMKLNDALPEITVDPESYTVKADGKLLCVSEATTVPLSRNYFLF
Lab note: anything with IC50 below 30 µM is marked Criterion met; values at 30 µM or higher are marked Criterion not met.

Answered examples (3):
CN(c1nccs1)S(=O)(=O)c1ccc([N+](=O)[O-])cc1
Criterion not met
COc1ccc(S(=O)(=O)N(C)c2nccs2)cc1
Criterion met
O=S(=O)(c1ccc(Cl)cc1)N(Cc1ccccc1)c1nccs1
Criterion met

In the following, a different compound is considered.
Below 30 µM on IC50? Entry CN(c1nccs1)S(=O)(=O)c1ccc(Cl)cc1 Criterion met

====

The reader will find reported superoxide anion % scavenging values listed item by item below.
assay: Superoxide anion scavenging assay; details: 100 μM
Expressed in %, but write only the number.

Solved entries (count: 10):
C=CCN(c1nccs1)S(=O)(=O)c1ccc(Cl)cc1
87
CN(c1nccs1)S(=O)(=O)c1ccc(F)cc1
92.5
C=CCN(c1nccs1)S(=O)(=O)c1ccc([N+](=O)[O-])cc1
97
O=S(=O)(c1ccccc1)N(Cc1ccccc1)c1nccs1
87
CN(c1nccs1)S(=O)(=O)c1ccccc1
87.5
CN(c1nccs1)S(=O)(=O)c1ccc([N+](=O)[O-])cc1
93.8
CN(c1nccs1)S(=O)(=O)c1ccc(Cl)cc1
99
O=S(=O)(c1ccc(Cl)cc1)N(Cc1ccccc1)c1nccs1
103
C=CCN(c1nccs1)S(=O)(=O)c1ccc(OC)cc1
93
C=CCN(c1nccs1)S(=O)(=O)c1ccc(F)cc1
104

Briefly, superoxide anion % scavenging measured for C=CCN(c1nccs1)S(=O)(=O)c1ccccc1 : 96

// recorded superoxide anion % scavenging for C=CCN(c1nccs1)S(=O)(=O)c1ccc(Br)cc1 : 99

superoxide anion % scavenging for COc1ccc(S(=O)(=O)N(C)c2nccs2)cc1 is 89.8

Reported superoxide anion % scavenging for O=S(=O)(c1ccc(F)cc1)N(Cc1ccccc1)c1nccs1 was 97

superoxide anion % scavenging for O=S(=O)(c1ccc(Br)cc1)N(Cc1ccccc1)c1nccs1 is 86

Source listed as paper PMC11327602.
